Tested on: B. cereus
propertyMeasured: MIC (µM)
Could you give me the number in µM? Just the number is fine.

Below are worked cases with known answers.
Oc1ccc(Cl)c2cccnc12 [Cloxyquin (3), cloxyquin] | 44.5
Nc1ccc(O)c2ncccc12 [5-amino-8HQ (8), 5-Amino-8-hydroxyquinoline] | 275
Oc1c(I)cc(Cl)c2cccnc12 [CQ (6), clioquinol] | 26.2
O=[N+]([O-])c1ccc(O)c2ncccc12 [NQ (2), Nitroxoline] | 21
Oc1c(I)cc(I)c2cccnc12 [Iodoquinol (7), iodoquinol] | 645

Param item: Oc1cccc2cccnc12 [8HQ (1), 8-Hydroxyquinoline] ; param system: B. cereus; output MIC: 13.8

---

Test system: S. dysenteriae
hey, just use Criterion met if measured MIC is less than 200 µM, otherwise Criterion not met

A selection of reference data follows.
Nc1ccc(O)c2ncccc12 [5-amino-8HQ (8), 5-Amino-8-hydroxyquinoline] | Criterion not met
Oc1c(I)cc(Cl)c2cccnc12 | Criterion not met
Oc1cccc2cccnc12 [8HQ (1), 8-Hydroxyquinoline] | Criterion not met

## Input For O=[N+]([O-])c1ccc(O)c2ncccc12 , is the recorded MIC below the cut-off of 200 µM?
## Output Criterion met

## Input Does this molecule meet the criterion MIC < 200 µM? Oc1c(I)cc(I)c2cccnc12
## Output Criterion not met

## Input Just wondering, is MIC of Oc1ccc(Cl)c2cccnc12 below 200 µM?
## Output Criterion met

---

Test system: S. Typhimurium ATCC 13311
The label Yes is reserved for MIC strictly under 200 µM; No covers values equal to or above it.

Oc1cccc2cccnc12 [8HQ (1), 8-Hydroxyquinoline] | No
Oc1ccc(Cl)c2cccnc12 [Cloxyquin (3), cloxyquin] | Yes
Nc1ccc(O)c2ncccc12 [5-amino-8HQ (8), 5-Amino-8-hydroxyquinoline] | No
O=[N+]([O-])c1ccc(O)c2ncccc12 [NQ (2), Nitroxoline] | Yes
Oc1c(I)cc(I)c2cccnc12 [Iodoquinol (7), iodoquinol] | No

## Input Here's an entry: Oc1c(I)cc(Cl)c2cccnc12 [CQ (6), clioquinol] . Is its MIC below 200 µM?
## Output No

---

As a worked illustration, we turn to log10(MIC) data collected for M. morganii.
Recall that a logarithmic scale is used here: each number is log10 of MIC in µM.

Oc1cccc2cccnc12 [8HQ (1), 8-Hydroxyquinoline] | 2.95
Nc1ccc(O)c2ncccc12 [5-amino-8HQ (8), 5-Amino-8-hydroxyquinoline] | 3.04
Oc1c(I)cc(Cl)c2cccnc12 | 2.92
O=[N+]([O-])c1ccc(O)c2ncccc12 | 1.62

Memo: Oc1ccc(Cl)c2cccnc12 , reported log10(MIC): 2.25

---

Entries and their MIC values follow.
Test system: P. shigelloides
test: Antimicrobial activity, agar dilution method
Format: cell-based
measurementParameters: Plesiomonas shigelloides, P. shigelloides; agar dilution
Hi! Could you send only the number? It should be in µM, unit omitted.

Oc1c(I)cc(I)c2cccnc12 | 645
O=[N+]([O-])c1ccc(O)c2ncccc12 | 42.1
Oc1c(I)cc(Cl)c2cccnc12 | 26.2
Oc1ccc(Cl)c2cccnc12 | 11.1

Next, consider the following compound.
Result for Nc1ccc(O)c2ncccc12 [5-amino-8HQ (8), 5-Amino-8-hydroxyquinoline] , tested on P. shigelloides, MIC: 1100

---

Test system: Gram-negative bacteria
test: Antimicrobial activity, agar dilution method, summarised over the group
Assay type: cell-based
MIC reference

// solved cases for MIC follow
Oc1cccc2cccnc12 [8HQ (1), 8-Hydroxyquinoline] | 110 to 882 µM
Oc1c(I)cc(I)c2cccnc12 | ≥ 645 µM
O=[N+]([O-])c1ccc(O)c2ncccc12 | 5.26 to 84.1 µM

# evaluate next
Given item Nc1ccc(O)c2ncccc12 [5-amino-8HQ (8), 5-Amino-8-hydroxyquinoline] , the value recorded as its MIC is 1100 µM
